# METHOD_SUMMARY: yeast display, Sf9 membrane polyspecificity reagent, FACS + sequencing; frameworks hold sequencing errors
EXPERIMENTAL_READOUT: polyreactivity (PSR sort gate)

RECORD_SEQUENCE: QVQLVESGGGLVQAGGSLRLSCAASGFTFTKNAMGWYRQAPGKERELVAAISRGGRTYYADSVKGRFTISRDNAKNTVYLQMNSLKPEDTADYYCAKGYASQILVAPRSQYYYWGQGTQVTVSS
RESULT: high polyreactivity

RECORD_SEQUENCE: QVQLVESGGGLVQAGGSLRVSCAASGRIFRWYAMGWYRQAPGKERELVAAITSRGTSTYYADSVKGRFTISRDNAKNTDYLQMNSLKPEDTAVYYCNAVPSRGYDYWGQGTQVTVSS
RESULT: high polyreactivity

* * *

# METHOD_SUMMARY: yeast display, Sf9 membrane polyspecificity reagent, FACS + sequencing; frameworks hold sequencing errors
EXPERIMENTAL_READOUT: polyreactivity (PSR sort gate)

RECORD_SEQUENCE: QVQLVESGGGLVQAGGSLRLSCAASGRTLYYYGMGWYRQAPGKERELVASITNGGNTNYADSVKGRFTISRDNAKNTVYLQMNSLKPEDTAVYYCAKDVPYWRPVVRYDYWGQGTQVTVSS
polyreactivity (PSR sort gate): low polyreactivity
--
RECORD_SEQUENCE: QVQLVESGGGLVQAGGSLRLSCAASGFTFRTYAMGWYRQAPGKERELVAAINTGGGTNYADSVKGRFTISRDNAKNTVYLQMNSLKPEDTAVYFCNAVHYYYYYWYSLYDSWGKGTQVTVSS
polyreactivity (PSR sort gate): high polyreactivity
--
RECORD_SEQUENCE: QVQLVESGGGLDQAGGSLRLSCAASGSIFGYNGMGWYRQAPGKESEFVAAISYSGSRTYYADSVKGRFTISRDNAKNTVYLQMNSLKPEDTAVYYCATDDSHYLYRTVSAWEYDYWGQGTQVTVSS
polyreactivity (PSR sort gate): low polyreactivity
--
RECORD_SEQUENCE: QVQLVESGGGLVQAGGSLRLSCAASGSIFFYNVMGWYRQAPGKERELVASISWRGASTYYADSVKGRFTISRDNAKNTVYLQMNSLKPEDTAVYYCAARFGSATRYQTGYYWGQGTQVTVSS
polyreactivity (PSR sort gate): high polyreactivity
--
RECORD_SEQUENCE: QVQLVESGGGLVQAGGSLRLSCAASGSIFYPYAMGWYRQAPGKERELVARIRGTGGRTYYADSVKGRFTISRDNAKNTVYLQMNSLKPEDTAVYYCNAQTSGRVGSQYYSYYGSWGQGTQLTVSS
polyreactivity (PSR sort gate): high polyreactivity

Problem: Report polyreactivity (PSR sort gate) for `QVQLVESGGGFVHAGGSLRLSCAASGITSRFYAIGWYRQAPAKERELVAAITSGGGSTRYSDSVKGRFTISRDNAKNTVYLQMNSLKPEDTAVYYCNARVLYYVNGYGGCKRYGYWGQGTQVNVSS` please.
Result: high polyreactivity

Problem: Report polyreactivity (PSR sort gate) for `QVQLEESGGGLVQAAGRLRVSCAASGYIYGYAMGWYKQAPAKEMELVAAITRGGGRTYYADSVKGRFTISRDNAKNTVYFQMHSLKPVDTAVYYCAVAANRGKGFYEYYHWGQGTQVTVSS` please.
Result: high polyreactivity

Problem: Report polyreactivity (PSR sort gate) for `QVQLVESGGGLVQAGGSLRLSCAASGSIFPPYAMGWYRQAPGKERELVAAIRRGSSTYYADSVKGRFTISRDNAKNTVYLQMNSLKPEDTAVYYCAARGRYRIGPGRYGKRYDYWGQGTQVTVSS` please.
Result: high polyreactivity

Problem: Report polyreactivity (PSR sort gate) for `QVQLVESGGGLVQAGGSLRLSCAASGYIFVVNAMGWYRQAPGKERELVAAIDWGGGSTYADSVKGRFTISRDNAKNTVYLQMYSLKPEDTAVYYCAADLWPYPNDYWGQGTQVTVSS` please.
Result: low polyreactivity

Problem: Report polyreactivity (PSR sort gate) for `QVQLVESGGALVQAGGSLRLSSAASGITFSRYAMGWYRQAPGKERELVARISSSGGSTNYADSVKGRFTISRDNAKNTVYLQMNSLKPEDTAVYYCAGATRGKVARRVTFDYWGQGTQVTVSS` please.
Result: high polyreactivity

Problem: Report polyreactivity (PSR sort gate) for `QVQLVESGGGLVQAGGSLRLSCAASGFTFGNNAMGWYRQAPGKERELVAAISKRGSSTYYADSVKGRFTISRDNAKNTVYLQMNSLKPEDTAVYYCAAPRSRSRTSRFDYWGQGTQVTVSS` please.
Result: high polyreactivity

Data origin, for the record: the nanobody polyreactivity screen of Harvey et al. (2022)
